Just for reference, a melting point compilation (Tetko et al.; mined from patent text by program, amines drawn as free bases though some values may be those of a salt) is where these values come from.

# melting point values compiled below

# annotated cases, reported melting point shown
| molecule | measured |
| --- | --- |
| O=[N+]([O-])c1ccc(NS(=O)(=O)c2ccccc2)cc1 | 137 °C |
| CN1CCN(c2c(F)c(F)c3c(=O)c(C(=O)O)cn(C4CC4)c3c2F)CC1 | 245 °C |
| Cc1ccc(-c2ccc3c(c2)C=C(C(=O)Nc2ccc(CN4CCSCC4)cc2)CC3)cc1 | 178 to 180 °C |
| CCCC1=NN(c2ccc(C#N)cc2)C(=O)C1=CNc1ccccc1CC | 197 °C |
| COP(=O)(Cc1cccc2cccc(CP(=O)(OC)OC)c12)OC | 168 to 170 °C |
| Cn1nc(-c2nc(S(C)(=O)=O)c(N)nc2-c2ccccc2)ccc1=O | 231 to 233 °C |
| COc1cc(NC(C)=O)c(Cl)cc1C(=O)NN1CCN2CCCCC2C1 (centres undefined) | 200 to 201 °C |
| COC(=O)CCCCNC(=O)c1sc2ccc(OC)cc2c1OC(C)C | 82 to 84 °C |
| NNC(=S)c1ccc2ccccc2c1 | 166 to 167 °C |
| CCOCn1c(-c2ccc(Cl)cc2)c(C(N)=O)c(Br)c1C(F)(F)F | 163 to 172 °C |

Prompt: For the molecule O=C(O)CCCCCCNC(=O)C1Cc2ccccc2N1S(=O)(=O)c1ccc(-c2cccc(C(F)(F)F)c2)cc1 (centres undefined) , report melting point.
Response: 65 to 70 °C

Prompt: For the molecule "COc1ccc(C=CC(=O)O)cc1-c1cc2c(cc1OCCCCCCCC(N)=O)C(C)(C)CCC2(C)C" , report melting point.
Response: 132 to 134 °C

Prompt: For the molecule "O=C(Nc1ccc(Cl)c(C(F)(F)F)c1)N1COc2cc(OCc3ccccc3)ccc21" , report melting point.
Response: 135 to 136 °C

Prompt: For the molecule "CCOC(=O)C(=CNc1nonc1C)C(=O)c1cc(F)c(F)c(F)c1F" , report melting point.
Response: 88 to 92 °C

Prompt: For the molecule "Cc1ncc(C(=O)NCc2cc(C(F)(F)F)cc(C(F)(F)F)c2)c(-c2ccccc2Br)n1" , report melting point.
Response: 138 °C
